System: Soybeans (Glycine max)
TEST METHOD NOTES: Seed application on soybeans in pouch, plant growth effects (shoot length, root system)
Assay type: in vivo
MEASUREMENT PARAMETERS: AI concentration 5 ppm, 14 days, additional growth vs blank formulation check
Quick reference for Mean shoot height increase (%) among some compounds
READOUT LABEL: Mean shoot height increase (%)

* CCOC(=O)OC1=C(c2c(C)cc(C)cc2CC)C(=O)NC12CCN(OC)CC2 | 8.6
* CCOC(=O)OC1=C(c2c(C)cc(Cl)cc2OC)C(=O)NC12CCN(OC)CC2 | 18.4
* CCOC(=O)OC1=C(c2cc(C)c(C)cc2C)C(=O)N(OC)C12CCN(OC)CC2 | 10.2
* CCOC(=O)OC1=C(c2c(C)cc(Cl)cc2C)C(=O)NC12CCN(OC)CC2 | 15.5
